Target Entity: D2S (h) (Homo sapiens)
Construct: purchased Eurofins Cerep (SafetyScreen44), recognised from the panel format
Sequence (P14416 1-414 isoform P14416-2): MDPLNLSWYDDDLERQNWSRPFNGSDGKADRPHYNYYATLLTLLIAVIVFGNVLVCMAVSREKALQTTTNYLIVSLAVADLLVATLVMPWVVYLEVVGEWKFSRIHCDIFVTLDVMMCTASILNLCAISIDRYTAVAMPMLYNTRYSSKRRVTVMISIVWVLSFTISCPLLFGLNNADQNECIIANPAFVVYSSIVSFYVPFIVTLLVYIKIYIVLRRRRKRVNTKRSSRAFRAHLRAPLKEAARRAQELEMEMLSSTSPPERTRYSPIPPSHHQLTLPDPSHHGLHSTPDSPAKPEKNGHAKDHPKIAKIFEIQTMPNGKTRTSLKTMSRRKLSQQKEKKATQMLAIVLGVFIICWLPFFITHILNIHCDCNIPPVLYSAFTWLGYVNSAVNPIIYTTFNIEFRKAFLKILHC
Test Protocol: In vitro CEREP profiling, D2S (h) (agonist radioligand)
Format: binding
Assay Conditions: test compound 10 uM
Recorded perc_inhibition (% inhibition of the binding of a ligand specific for each target) for the following compounds
Property Label: perc_inhibition (% inhibition of the binding of a ligand specific for each target) (%)

[
  {
    "Input Smiles": "CC(C)[C@@H](Nc1ncnc2[nH]c(-c3cnn(C)c3C#N)cc12)c1ccc2c(n1)OCCO2",
    "Reported": 3
  },
  {
    "Input Smiles": "Cn1ncc(-c2cc3c(N[C@@H](c4ccc5c(n4)OCCO5)C(C)(C)C)ncnc3[nH]2)c1C#N",
    "Reported": 13
  },
  {
    "Input Smiles": "CC(C)[C@H](Nc1ncnc2[nH]c(-c3cnn(C)c3C#N)cc12)c1ccc2c(n1)OCCO2",
    "Reported": -7
  },
  {
    "Input Smiles": "CNCc1cc(-c2cc3c(N[C@@H](c4ccc5c(c4)S(=O)(=O)CCC5)C(C)C)ncnc3[nH]2)co1",
    "Reported": -9
  },
  {
    "Input Smiles": "C[C@H](C(=O)O)[C@@H](NC(=O)c1ncnc2[nH]ccc12)c1ccc(Br)cc1",
    "Reported": -1
  },
  {
    "Input Smiles": "COc1ccc([C@H](Cc2nnn[nH]2)NC(=O)c2ncnc3[nH]ccc23)cc1",
    "Reported": -4
  },
  {
    "Input Smiles": "CC(C)[C@H](Nc1ncnc2[nH]ccc12)c1ccc2c(c1)S(=O)(=O)CCC2",
    "Reported": -14
  }
]
